Catalogue of IC50 readings, one per entry.
test system: DU-145; assay: cells; details: Homo sapiens, DU-145, 48 h
Description: Cytotoxicity against human DU145 cells after 48 hrs by sulforhodamine B assay
Please respond with the number in µM and leave the unit unwritten.

Worked examples, 5 molecules total:
structure_smiles_string=COc1ccc(-c2nc(C(=O)c3ccc(F)cc3)c[nH]2)cc1OC measure_name=IC50 data_value=10
structure_smiles_string=COc1cc(C(=O)c2cnc(-c3ccc(N(C)C)cc3)n2S(=O)(=O)c2ccccc2)cc(OC)c1OC measure_name=IC50 data_value=0.099
structure_smiles_string=O=C(c1ccc(F)cc1)c1cnc(-c2ccccc2)n1S(=O)(=O)c1ccccc1 measure_name=IC50 data_value=0.846
structure_smiles_string=O=C(c1cc(O)c(O)c(O)c1)c1c[nH]c(-c2ccc(Cl)cc2)n1 measure_name=IC50 data_value=10
structure_smiles_string=COc1cc(C(=O)c2c[nH]c(-c3ccc(F)cc3)n2)cc(OC)c1OC measure_name=IC50 data_value=0.132

Lookup: Quick one: IC50 of COc1ccc(-c2nc(C(=O)c3cc(OC)c(OC)c(OC)c3)c[nH]2)cc1 ?
Found: 0.048

Lookup: Query: IC50; subject: COc1ccc(-c2ncc(C(=O)c3cc(OC)c(OC)c(OC)c3)n2S(=O)(=O)c2ccccc2)cc1OC
Found: 0.144
